Cited source: patent US20180079802A1

Target: CHIKV p62-E1 (Chikungunya virus)
Assay: SPR (Biacore T100), IgG captured by anti-human IgG, p62-E1 injected
measured metric: t1/2 (min)
// note: answer is a bare numeric in min

// returns reported t1/2 for input 3A2 (antibody, V domains shown) VH: QVQLVQSGGGVVQPGRSLRLSCAASGFTFSNYVMEWVRQAPGKGLEWVAVISYDGSNKYYADSVKGRFTISRDNSKNTLYLQMNSLRAEDTAVYYCARSEWESSYGSGNYYTDYFYYYAMDVWGPGTLVTVSS VL: QAVVTQSPLSLPVTPGEPASISCRSNQSLLRGIRYNYLDWYLQKPGQSPQLLIYLGSNRASGVPDRFSGSGSATDFTLKISRVEAEDVGVYYCMQALQTPTTFGQGTRLEIK
11

Which measured t1/2 value corresponds to 3E23 (antibody, V domains shown) VH: QVQLVQSGPGLVKPSDTLSLTCSVSSDALRSRSYYWGWVRQPPGKGLEWIGTVSYSGGTYYNPSLQSRVTVSVDTSKNHFSLRLNSVTAADAAVYYCARSYFYDGSGYYYLSYFDSWGQGTLVTVSS VL: QAVVTQEPSLTVSPGGTVTLTCASSTGAVTSGHYPNWFQQKPGQPPRALIYSTDNKHSWTPARFSGSLLGVKAALTLSDVQPEDEADYYCLLHFGGVVVFGGGTKLTVL ?
43

Value lookup for t1/2; key = 3B4 (antibody, V domains shown) VH: QVQLEESGPTLVKPTQTLTLTCSFSGFSLTTTGVTVGWIRQPPGKALEWLALIYWDDDKRYSPSLKSRLTITKDTSKNQVVLTMTNMDPVDTATYYCAHSTGYYDSSGYRGALDAFAVWGQGTLVTVSS VL: QIVVTQFPDSPAVSLGERATINCKSSQSVLYHSNNKNYLAWYQQKPGQPPNLLIYWASARQSGVPDRFSGSGSGTDFTLTISSLQAEDVAVYYCQQYYSTPYTFGQGTKLEIK
74
